# SYSTEM UNDER TEST: GST-Aq-NF-kB (Amphimedon queenslandica, UniProt A9Y5G7 2-389)
# Sequence: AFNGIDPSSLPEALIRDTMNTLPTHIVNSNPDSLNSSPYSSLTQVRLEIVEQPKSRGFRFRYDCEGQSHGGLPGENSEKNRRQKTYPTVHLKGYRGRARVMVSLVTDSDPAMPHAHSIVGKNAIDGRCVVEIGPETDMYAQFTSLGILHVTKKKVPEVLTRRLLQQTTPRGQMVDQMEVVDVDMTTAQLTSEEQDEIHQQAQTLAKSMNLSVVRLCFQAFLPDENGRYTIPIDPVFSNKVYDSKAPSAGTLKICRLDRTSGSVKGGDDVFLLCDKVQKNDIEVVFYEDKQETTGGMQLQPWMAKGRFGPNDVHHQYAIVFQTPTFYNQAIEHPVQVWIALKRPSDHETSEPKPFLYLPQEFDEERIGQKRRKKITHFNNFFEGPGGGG
# PROTOCOL: protein-binding microarray (PBM); PBM: ~300 nM protein, 6 mM HEPES pH 7.8, 80 mM KCl, 0.5 mM EDTA, 0.5 mM EGTA, 6% glycerol, 35 ng/ul poly-dIdC, 1% milk, 1 h, room temperature; Ap Aiptasia and Nv Nematostella (sea anemones) / Co Capsaspora / Aq Amphimedon (sponge) / Dm Drosophila / Hu human; RHD is the Rel homology domain; high values mean tight binding
# ASSAY SETUP: dsDNA, one strand shown
Response field label: string, one of y (binding signal strictly below 4 z-score) or n.

The following sequences have reported results that may help.
CCGATTAACATCACGGGAAATCCTGATGTTAATCGGGTCTTGATTCGCTTGACGCTGCTG ... n
CCGATTAACATCACCCTTGCAGGTGATGTTAATCGGGTCTTGATTCGCTTGACGCTGCTG ... y
CCGATTAACATCAAAAAAGTACCTGATGTTAATCGGGTCTTGATTCGCTTGACGCTGCTG ... n
CCGATTAACATCAAAATTTCCCCTGATGTTAATCGGGTCTTGATTCGCTTGACGCTGCTG ... n

Problem: For the sequence CCGATTAACATCAAGGGGGTATCTGATGTTAATCGGGTCTTGATTCGCTTGACGCTGCTG , is binding signal under 4 z-score?
n

Problem: For the sequence CCGATTAACATCAGATTCCCCCCTGATGTTAATCGGGTCTTGATTCGCTTGACGCTGCTG , is binding signal under 4 z-score?
n
